Listed compounds paired with reported TC50
System: 2.2.15 cells
Experiment: Cytotoxicity (TC50) in 2.2.15 cells
Assay type: cell-based
Procedure: All compounds were evaluated for their anti-HBV activities, namely the ability to inhibit the replication of HBV DNA and the production of HBsAg and HBeAg in HBV-infected 2.2.15 cells. The samples were dissolved in DMSO for appropriate concentrations, and then each was diluted 3-fold with culture medium. The 2.2.15 cells were planted into 96-well culture plates. […] The culture supernatants and 2.2.15 cells were collected respectively on the 8th plant day. […]
Structures can show the parent of a compound that is named as a salt.

The examples below pair each entry with its known result.
CCOC(=O)c1c(C[S+]([O-])c2ccc(F)cc2)n(C)c2cc(Br)c(O)c(CN3CCOCC3)c12 (centres unmarked) [Example 58] | >500 µg/mL
CCOC(=O)c1c(C[S+]([O-])Cc2ccc(F)cc2)n(C)c2cc(Br)c(O)c(CN(C)C)c12 (centres unmarked) [Example 80] | <0.91 µg/mL
CCOC(=O)c1c(CSc2cccc(F)c2)n(C)c2cc(Br)c(O)c(Cn3ccnc3)c12 [Example 175] | 35.61 µg/mL
CCOC(=O)c1c(C[S+]([O-])c2ccc(F)cc2)n(C2CC2)c2cc(Br)c(O)c(Cn3ccnc3)c12 (centres unmarked) [Example 117] | 55.56 µg/mL
Nc1ccn([C@@H]2CS[C@H](CO)O2)c(=O)n1 [Example 3TC, Lamivudine, reference compound] | 1600 µg/mL
CCOC(=O)c1c(CS(=O)(=O)c2ccccc2)n(C)c2cc(Br)c(O)c(Cn3ccnc3C)c12 [Example 166] | 53.42 µg/mL
CCOC(=O)c1c(C[S+]([O-])c2ccc(C)cc2)n(C)c2cc(Br)c(O)c(CNC(=N)N)c12.Cl (centres unmarked) [Example 152] | 192.45 µg/mL
CCOC(=O)c1c(CS(=O)(=O)Cc2ccccc2F)n(C2CC2)c2cc(Br)c(O)c(Cn3ccnc3C)c12 [Example 165] | 7.76 µg/mL
CCOC(=O)c1c(C[S+]([O-])c2ccc(F)c(F)c2)n(C)c2cc(Br)c(O)c(Cn3ccnc3C)c12.Cl (centres unmarked) [Example 133] | 40.0 µg/mL
CCOC(=O)c1c(C[S+]([O-])c2ccc(F)cc2)n(C)c2cc(Br)c(O)c(CNC(=N)N)c12 (centres unmarked) [Example 153] | 125 µg/mL

Test item CCOC(=O)c1c(C[S+]([O-])Cc2cscn2)n(C2CC2)c2cc(Br)c(O)c(Cn3ccnc3C)c12 (centres unmarked) [Example 182, dihydrochloride] ; 2.2.15 cells; reported TC50 was 64.15 µg/mL

Test item CCOC(=O)c1c(C[S+]([O-])Cc2cscn2)n(C2CC2)c2cc(Br)c(O)c(Cn3ccnc3)c12 (centres unmarked) [Example 128, dihydrochloride] ; 2.2.15 cells; reported TC50 was 53.42 µg/mL

---

Listed molecules paired with reported TC50
Tested on: Madin-Darby canine kidney (MDCK) cells
Numeric answer only, unit µg/mL assumed.

The examples below pair each entry with its known result.
CCOC(=O)c1c(CSc2nc3ccc(OC)cc3[nH]2)n(C)c2cc(Br)c(O)c(CN3CCOCC3)c12 | 125.0
CCOC(=O)c1c(CSCc2ccc(F)cc2)n(C)c2cc(Br)c(O)c(CN(C)C)c12.Cl | 49.51
CCOC(=O)c1c(CSCc2ccc(F)cc2)n(C)c2cc(Br)c(O)c(Cn3ccnc3C)c12 | 49.61

Attention now turns to another entry.
Test item CCOC(=O)c1c(CSCc2ccccc2)n(C)c2cc(Br)c(O)c(Cn3ccnc3)c12 ; Madin-Darby canine kidney (MDCK) cells; reported TC50 was 125
